Origin of values: patent US7635696B2

target: human 5HT transporter (Homo sapiens); construct: host or cells: HEK cells; assay: Binding experiment for 5-HT transporter ([3H]Paroxetine); conditions: transfected HEK cell membranes, [3H]Paroxetine; read-out: pIC50 5HTT (converted)
Sequence (P31645 whole entry): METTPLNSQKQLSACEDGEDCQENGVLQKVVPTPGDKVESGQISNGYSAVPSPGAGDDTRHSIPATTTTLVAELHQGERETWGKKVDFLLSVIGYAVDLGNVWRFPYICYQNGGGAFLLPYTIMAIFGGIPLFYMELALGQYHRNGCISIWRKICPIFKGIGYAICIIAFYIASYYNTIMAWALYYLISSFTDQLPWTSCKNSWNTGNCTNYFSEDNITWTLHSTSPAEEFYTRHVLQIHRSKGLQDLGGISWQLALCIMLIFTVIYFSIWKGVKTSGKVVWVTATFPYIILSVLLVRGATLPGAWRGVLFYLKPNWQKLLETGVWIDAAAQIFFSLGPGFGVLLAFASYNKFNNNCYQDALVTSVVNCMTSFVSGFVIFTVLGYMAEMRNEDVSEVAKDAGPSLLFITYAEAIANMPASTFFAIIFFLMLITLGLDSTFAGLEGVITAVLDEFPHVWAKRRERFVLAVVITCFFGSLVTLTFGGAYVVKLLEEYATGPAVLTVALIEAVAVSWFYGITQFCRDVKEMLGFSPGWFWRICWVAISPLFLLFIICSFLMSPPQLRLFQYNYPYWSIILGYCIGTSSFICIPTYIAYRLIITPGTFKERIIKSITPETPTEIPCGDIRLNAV
VALUE_KIND: IC50

Field: example entries. Status: answers known.
COCCOCOc1ccc2[nH]cc(C3=CCN(CC4ON=C5c6cc(OC)c(OC)cc6OCC54)CC3)c2c1 (stereo not drawn): > 10 µM
CCNC(=O)Nc1ccc2[nH]cc(C3=CCN(CC4ON=C5c6cc(OC)c(OC)cc6OCC54)CC3)c2c1 (racemic): > 10 µM

Exercise: // Input: COc1cc2c(cc1OC)C1=NOC(CN3CC=C(c4c[nH]c5ccc(NC(C)=O)cc45)CC3)C1CO2 (racemic) . Output its IC50 only.
Solution: > 10 µM
